# protocol-text: NCI Yeast Anticancer Drug Screen. Data for the sgs1 strain (AID 173);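 further: 0% = growth of vehicle-only control cultures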
# settings: S. cerevisiae sgs1 mutant, at 100.0 µM, stronger effect = higher value
The panel holds about 79,000 compounds, 15% with a hit somewhere; the sample as a whole holds those more often.
recorded-endpoint: growth inhibition (%)
Write the value in % as a bare number.

Sample records with growth inhibition:
Form: compound = O=C1C(=O)N(c2ccccc2)[C@@]2(c3ccccc3)C(=Nc3ccccc3)OC(c3ccccc3)=C12 ; growth inhibition = 96

Form: compound = CC(C)(CN1CCCCC1)C(=O)CC(SCCS(=O)(=O)O)c1ccccc1 (configuration not stated) ; growth inhibition = 22

Form: compound = O=C1C=C(Br)C(=O)c2ccccc21 ; growth inhibition = 99

Consider the additional compound presented here.
Form: compound = O=C1C(=O)c2cccc([N+](=O)[O-])c2-c2ccccc21 ; growth inhibition = 96

----------
# protocol-text: NCI Yeast Anticancer Drug Screen. Data for the mec2-1 strain (AID 157)
# settings: S. cerevisiae mec2-1 strain, at 50.0 µM, stronger effect = higher value
The panel holds about 79,000 compounds, 15% with a hit somewhere; the sample as a whole holds those more often. Active and inactive are the calls of the source. Rule as the data show it: active = growth inhibition above about 70%; inactive = the rest.
recorded-endpoint: growth inhibition

Sample records with growth inhibition:
Form: compound = CCC1(O)C(=O)OCc2c1cc1n(c2=O)Cc2cc3c(N)cccc3nc2-1 (stereo not given) ; growth inhibition = -0.85% (inactive)

Form: compound = NC(CS)C(=O)NCCNc1ccc(NCCNC(=O)C(N)CS)c2c1C(=O)c1c(O)ccc(O)c1C2=O (stereo not given) ; growth inhibition = 76% (active)

Form: compound = Cc1c(C(=O)/C=C/c2ccccc2[N+](=O)[O-])[n+](=O)c2ccccc2n1[O-] ; growth inhibition = 90.5% (active)

Form: compound = O=C1C2=C(c3ccccc31)C(c1ccccc1)N1C(=O)CSC1=N2 (stereo not given) ; growth inhibition = 45% (inactive)

Form: compound = CC(C)Cc1ncc(CCCN=C(N)N)[nH]c1=O ; growth inhibition = 77.8% (active)

New cases:
Form: compound = NC(=S)N/N=C1\c2ccccc2CCC1CCC1(O)CCc2ccccc2C1=O (stereo not given) ; growth inhibition = 88.2% (active)

Form: compound = c1ccc(-c2cc(C3CO3)c3ccccc3n2)cc1 (stereo not given) ; growth inhibition = 74.5% (active)

Form: compound = CN1CCN(C(=O)c2cccc3cccc(C(=O)O)c23)CC1 ; growth inhibition = 97.7% (active)

Form: compound = COC(=O)c1ccccc1N=NNc1cccc(SC)c1 ; growth inhibition = 85.7% (active)

Form: compound = O=C(C#Cc1ccccc1)Nc1ccccc1 ; growth inhibition = 33.6% (inactive)

----------
Measured growth inhibition of individual entries
# protocol-text: NCI Yeast Anticancer Drug Screen. Data for the mec2-1 strain (AID 157)
# settings: S. cerevisiae mec2-1 strain, at 5.0 µM (retest, dose inferred, filed as 0.5), stronger effect = higher value
The panel holds about 79,000 compounds, 15% with a hit somewhere; the sample as a whole holds those more often.
Write the value in % as a bare number.

Sample records with growth inhibition:
Form: compound = Nc1ccc2cc(Br)ccc2c1Br ; growth inhibition = -5

Form: compound = O=C(NCCCCN1CC2CCCC2C1)C(C1CCCCC1)C1CCCCC1 (centres undefined) ; growth inhibition = 17

Form: compound = CC1=COC2=C(C)C(=O)C(=O)c3c(C)ccc1c32 ; growth inhibition = 36

Form: compound = CC1=CC(=O)C=CC1=Nc1cc(Cl)c(O)c(Cl)c1 ; growth inhibition = 63

New cases:
Form: compound = COc1ccccc1NC(=O)c1ccc(Cl)cc1 ; growth inhibition = -6

Form: compound = CCCCCCC=C(C(=O)OCC)C(=O)OCC ; growth inhibition = -8
